Values from the supplement of paper PMC11061612

Tested on: A253 (Head and Neck Carcinoma);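 further: after 72 h of two-drug dosing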
Test: Bliss excess, mean over the matrix (fraction); higher = more synergy
observable: Bliss excess
Give bare numbers.

C[C@@H](c1ccc2nccn2c1)n1nnc2ncc(-c3cnn(C)c3)nc21 [Savolitinib] + CN(CC[C@H](CSC1=CC=CC=C1)NC2=C(C=C(C=C2)S(=O)(=O)NC(=O)C3=CC=C(C=C3)N4CCC(CC4)[C@H](C5=CC=CC=C5C6=CC=C(C=C6)Cl)O)S(=O)(=O)C(F)(F)F)CCO [AZD4320] (first compound max 1 µM, 7x7, partner max 1 µM) :: -0.0569

Kindly review the next molecule as well.
Endpoint output: Bliss excess of CCN(CCO)CCCOc1ccc2c(Nc3cc(CC(=O)Nc4cccc(F)c4)[nH]n3)ncnc2c1 [AZD2811] + O=C(c1cc(Cc2n[nH]c(=O)c3ccccc23)ccc1F)N1CCN(C(=O)C2CC2)CC1 [Olaparib] (first compound max 1 µM, 7x7, partner max 10 µM) . Value? 0.0485
